Biological target: T1, fetuin (UniProt P12763 19-359)
T1 sequence (looked up): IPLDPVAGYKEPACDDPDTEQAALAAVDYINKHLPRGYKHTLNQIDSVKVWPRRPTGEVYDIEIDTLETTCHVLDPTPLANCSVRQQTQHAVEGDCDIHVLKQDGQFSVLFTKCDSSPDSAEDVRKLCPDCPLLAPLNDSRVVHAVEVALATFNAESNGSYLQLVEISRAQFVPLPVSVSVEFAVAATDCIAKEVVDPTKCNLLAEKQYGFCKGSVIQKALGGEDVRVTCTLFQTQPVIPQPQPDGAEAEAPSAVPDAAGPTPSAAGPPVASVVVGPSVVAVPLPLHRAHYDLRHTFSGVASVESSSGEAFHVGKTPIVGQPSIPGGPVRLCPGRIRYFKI
Experiment: SPR; Biacore 3000; odorranalectin immobilised on sensor chip CM-5 by amine coupling, glycoproteins as analytes diluted in HBS-EP (10 mM HEPES-buffered saline, 3 mM EDTA, 0.005% surfactant P-20, pH 7.4); 1:1 binding model; KD calculated from ka and kd
Settings: both partners purified
EXPERIMENTAL_READOUT: Kd (µM)
Quick reminder: number only, in µM, skip the unit.

Request: Please report the recorded Kd for YASPKCFRYPNGVLACT (odorranalectin, mature 17-residue peptide at the C-terminus of the 61-residue precursor, Odorrana grahami; follows the di-basic site K42R43 of the precursor; One intramolecular disulfide bond Cys6-Cys16; Immobilised on a CM-5 chip by amine coupling; Details of purification and synthesis are in Materials and Methods S1; also called lectin-like peptide; source: purified from O. grahami skin …) [odorranalectin] .
Response: 0.211

Reference source: paper PMC2440032
